target.entity: T1, mature recombinant mouse GDF-15 with Flag and His tags (mouse, UniProt Q9Z0J7 189-303)
T1 construct: also called Flag tagged mouse GDF-15; not shown: FLAG and poly-His tags immediately C-terminal to the furin cleavage site (N-terminal on the mature protein)
T1 sequence: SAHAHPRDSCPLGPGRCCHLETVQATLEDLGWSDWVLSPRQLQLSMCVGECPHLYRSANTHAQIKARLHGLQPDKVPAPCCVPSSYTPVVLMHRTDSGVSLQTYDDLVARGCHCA
protocol.summary: SPR Biacore 8K, 25 C, biotinylated GDF-15 on streptavidin C1 chip, Fab as analyte
assay.endpoint: Kd (nM)
Respond numerically; units are nM and should not be typed.

Worked examples, 3 binders total:
binder | units | obs.value
AB1170245 Fab (Fab, V domains shown, Fab of the humanized antibody, expressed as in Spooner et al. 2015) VH: EVQLVESGGGLVKPGGSLRLSCAASGFTFSSYAMSWVRQAPGKGLEWVAYISSGGDYIYYADTVKGRFTISRDNSKNTLYLQMNSLKTEDTAVYYCTRALVDNAYFDYWGQGTTVTVSS VL: DIVLTQSPDSLAVSLGERATINCRASKSVSTSSYSYMHWYQQKPGQPPKLLIKYASYLEFGVPSRFSGSGSGTDFTLTISSLQPEDVATYYCQHSREFPWTFGGGTKVEIK | nM | 2400
AB1170244 Fab (Fab, V domains shown, Fab of the humanized antibody, expressed as in Spooner et al. 2015) VH: EVQLVESGGGLVKPGGSLRLSCAASGFTFSSYAMSWVRQAPGKGLEWVAYISSGGDNIYYADTVKGRFTISRDNSKNTLYLQMNSLKTEDTAVYYCTRALVENAYFDYWGQGTTVTVSS VL: DSVLTQSPDSLAVSLGERATINCRASKSVSTSTYSYMHWYQQKPGQPPKLLIKYASYLESGVPDRFSGSGSGTDFTLKISRVEAEDVGVYYCQHSREFPWTFGGGTKVEIK | nM | 916
AB1170241 Fab (Fab, V domains shown, Fab of the humanized antibody, expressed as in Spooner et al. 2015) VH: QVQLVQSGSELKKPGASVKVSCKASGYTFTDYNMDWIRQSPGKGLEWIGDINPNQGGTFYNQKFKDRATLTVDKSTSTAYMELRSLRSDDTAVYYCAREEKLYFGLMDYWGQGTTVTVSS VL: DIQMTQSPSSLSASVGDRVTITCRASENIYSYLAWYQQKPGKAPKLLVYNAKTLAEGVPSRFSGSGSGIDFTLTISSLQPEDFATYYCQHQYGSPPTFGQGTKLEIK | nM | 107

Challenge: Could you share which Kd value was measured for AB1170249 Fab (Fab, V domains shown, Fab of the humanized antibody, expressed as in Spooner et al. 2015) VH: QVQLQESGPGLLKPSQTLSLTCTVSGFSLSTYGMGVGWIRQPLGKGLEWLANIWWNDDKYYNSALKSRLTISKDTSKNQVSLKLSSVTAADTAVYYCAQMAYSWFAYWGQGTLVTVSS VL: DIQMTQSPSFLSASVGDRVTITCKASQNMDTNVAWYQQKPGQPPKALIYSASYRYSGVPDRFSGSGSGTDFTLTISSLQAEDVAVYYCQQYNSYPFTFGQGTKLEIK ?
Response given: 1140

Challenge: Next: AB1170242 Fab (Fab, V domains shown, Fab of the humanized antibody, expressed as in Spooner et al. 2015) VH: QVQLQESGPGLLKPSQTLSLTCTVSGFSLSTYGMGVGWIRQPAGKGLEWLANIWWNDDKYYNSALKSRLTISKDTSKNQVSLKLSSVTAADTAVYYCAQEVYGWFAYWGQGTLVTVSS VL: DIQMTQSPSTLSASVGDRVTITCKASQNVGTNVAWYQQKPGQPPKALIYSASYRYSGVPDRFSGSGSGTDFTLTISSLQAEDVAVYYCQQYNSYPLTFGQGTKLEIK
Response given: 908

Challenge: Next: AB1170243 Fab (Fab, V domains shown, Fab of the humanized antibody, expressed as in Spooner et al. 2015) VH: QVQLVQSGSELKKPGASVKVSCKASGYTFTDYNMDWIRQSPGKGLEWIGDINPNNGGTFYNQKFKDRATLTVDKSTSTAYMELRSLRSDDTAVYYCAREEKLYFGLMDYWGQGTTVTVSS VL: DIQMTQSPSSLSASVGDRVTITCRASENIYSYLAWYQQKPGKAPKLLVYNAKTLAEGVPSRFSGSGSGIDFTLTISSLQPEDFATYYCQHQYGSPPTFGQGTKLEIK
Response given: 75

Challenge: Next: AB1520085 Fab (Fab, V domains shown, Fab of the anti-mouse GDF-15 mouse IgG1, expressed as in Spooner et al. 2015) VH: QVQLQQPGAELVMPGASVKMSCKASGYTFTDYWMHWVKQRPGQGLEWIGVIDTSESYTSYNQKFKGKATLTVDESSSTAYMQLSSLTSEDSAVYFCARGGTTVVLDYWGQGTTLTVSS VL: DIVMTQSQKFMSTSVGDRVSVTCKASQNVGTAVAWYQKKPGQSPKALIYSASTRYTGVPDRFTGSGSGTDFTLTISNVQSEDLAEYFCQQYSSSPWTFGGGTKLELK
Response given: 0.14
